Hello, the source for this data is the RNAGym collection of RNA variant scans (doi:10.7554/elife.90254), in case you need it.

B1: LINE1-full (parent)
chain: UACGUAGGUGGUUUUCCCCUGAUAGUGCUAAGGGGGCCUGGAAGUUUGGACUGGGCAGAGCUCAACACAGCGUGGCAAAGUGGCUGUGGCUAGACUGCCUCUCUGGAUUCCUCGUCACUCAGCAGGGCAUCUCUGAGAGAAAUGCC

variants of: B1; test: self-cleavage, relative activity (ratio to wild type); higher = more cleavage; in vitro, sequencing; the parent is a self-cleaving ribozyme
measured property: self-cleavage
Give the figure by itself; no unit, no explanation.

sequence data | self-cleavage
UACGUAGGUGGUUUUCCACUGAUAGUGCUAAGGGGGCCUGGAAGUUUGGACUGGGCAGAGCUCAACACAGCGUGGCAAAGUGGCUGUGGCUAGACUGCCUCUCUGGAUUCCUCGUCACUCAGUAGGGCAUCUCUGAGAGAAAUGCC [C18A C123U] | 1.31

Q) # input variant: UACGAAGGUGGUUUUCCCCUGAUAGUGCUAAGGGGGCCUGGAAGUUUGGACUGGGCAGAGCUCAACACAGCGUGGCAAGGUGGCUGUGGCUAGACUGCCUCUCUGGAUUCCUCGUCACUCAGCAGGGCAUCUCUGAGAGAAAUGCC [U5A A79G] ; wanted: its self-cleavage
A) 0.87

Q) If you can, please state the reported self-cleavage value of UACGCAGGUGGUUUUCCCCUGAUAGUGCUAAGGGGGUCUGGAAGUUUGGACUGGGCAGAGCUCAACACAGCGUGGCAAAGUGGCUGUGGCUAGACUGCCUCUCUGGAUUCCUCGUCACUCAGCAGGGCAUCUCUGAGAGAAAUGCC [U5C C37U] .
A) 1.02

Q) Could you tell me which self-cleavage is on file for UACGUAGGUGGUUUUCCCCUGAUAGUGCUAAGGGGGCCUGGAAGUUUGGACUGGGCAGAGCUCAACACAGCGUGGCAAAGUGGCUGUGGCUAGACUGCCUCUCUGGAUUCCUCGUCACUCAGAAGGGCAUCUCUGAGAGGAAUGCC [C123A A140G] ?
A) 1.42

Q) Please give the measured self-cleavage for this variant: UACGUAGGUGGUUUUCCCCUGAUAGUGCUAAGGGGGCCUGGAAGUUUGGUCUGGGCAGAGCUCAACACAGCGUGGCAAAGUGGCUGUGGUUAGACUGCCUCUCUGGAUUCCUCGUCACUCAGCAGGGCAUCUCUGAGAGAAAUGCC [A50U C90U]
A) 0.05

Q) For UACGUAGGUGGUUUUCCCCUGAUAGUGCUAAGGGGGCCUGGAAGUUUGGACUGGGCAGAGCUCAACACAGCGUGGCAAAGUGGCUGUGGCUAGACUGCCUCUCUGGAUUCCUUGUCACUCGGCAGGGCAUCUCUGAGAGAAAUGCC [C113U A121G] , what is its reported self-cleavage?
A) 0.68

Q) Given UACGUAGGUGGUUUUCCCCUGAUAGUGCUAAGGGGGCCUGGAAGUUUGGACUGGGCAGAGCUCAACACAGCGUGGCAAGGUGGCUGUGGCUAGACUGCCUCUCUGGAUUCCUCGUCACUCAGCAGGGCAUCUCUGAGUGAAAUGCC [A79G A138U] , state its recorded self-cleavage.
A) 0.85

Q) Which value of self-cleavage has been reported for UACGUAGGUGGUUUUCCCCUGAUAGUGCUAAGGGGGCCUGGAAGUUUGGACUGGGCAGAGCUCACCACAGCGUGGCAAAGUGGCUGUGGCUAGACUACCUCUCUGGAUUCCUCGUCACUCAGCAGGGCAUCUCUGAGAGAAAUGCC [A65C G97A] in the records?
A) 0.04

Q) I would be grateful if you could share the reported self-cleavage for UACGUAGGUGGUUUUCCCCUGAUAGUGCUAAGGGGGCCUGGAAGUUUGGACUGGGCAGAGCUCAUCACAGCGUGGCAAAGUGGCUGUGGCUAGACUGCCUCUCUGGAUUCCUCGUCACACAGCAGGGCAUCUCUGAGAGAAAUGCC [A65U U119A] .
A) 0.21

Q) Could you tell me which self-cleavage is on file for UACGUAGGUGGUUUUCCCCUGAUAGUGCUAAGGGGGCCUGGAAGUUUGGACUGGGCAGAGCUCAACACAGCGUGGCAAAGUGGCUGUGGCUAGACUGCCUCUCUGGAUUCCUCCUCACUCAGCAGGGCAUCUCUGAGAGAAAUGCC [G114C] ?
A) 1.63
